Data provenance: the supplement of paper PMC10567573

B1: MMP1 (parent)
chain: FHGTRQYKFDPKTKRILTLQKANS

Variants of: B1
protocol-summary: protein stability index of a GFP-peptide fusion (GPS, HEK-293T) (PSI 1-6); higher = more stable;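 further: lentivirally expressed fusions sorted by FACS into six bins by GFP to DsRed ratio, PSI derived from sequencing read proportions per bin multiplied by bin number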
experimental-conditions: c terminus: a fixed tail appended
Param threshold (2) applies to protein stability index; output Met when value >= threshold, Not met when value < threshold.

Answered examples (8):
In: Entry `Q6R` : is its protein stability index no less than 2?
Out: Not met

In: Is it the case that `Y7R` has protein stability index reaching or exceeding 2?
Out: Met

In: Reported protein stability index at or above 2? `T13Q`
Out: Met

In: Check if protein stability index >= 2 (inclusive). Item: `L17F`
Out: Not met

In: State whether the measured protein stability index reaches 2, counting equality as reaching it, for `F1Y`
Out: Met

In: Does the variant `K21D` have recorded protein stability index that is 2 or more?
Out: Not met

In: Quick check, protein stability index >= 2? `F1S`
Out: Met

In: Kindly determine if protein stability index recorded for `A22C` is above or exactly 2.
Out: Met

Further cases:
In: Hi team, for `K12V` , is the recorded protein stability index at or above 2?
Out: Not met

In: Decide: is the reported value of protein stability index for `S24I` equal to or greater than 2?
Out: Met

In: Determine whether this variant has protein stability index no lower than 2: `K12N`
Out: Met

In: Does protein stability index meet or surpass 2 for `T18S` ?
Out: Not met

In: Determine whether this variant has protein stability index no lower than 2: `R5L`
Out: Met

In: Please tell me: is the variant `T13C` at or over 2 in terms of protein stability index?
Out: Met
